Quick reference: Cmax of the listed items.
TEST NAME: Cmax in mouse at 1 mg/kg, iv measured up to 24 hrs by LC-MS/MS analysis
Assay type: ADME, organism-based
Design: route intravenous, dose 1 mg/kg, time <=24
CONDITION PARAMETERS: in vivo
Write the value in ng/mL as a bare number.

Some molecules with known Cmax results, for comparison:
{"columns": ["SMILES TEXT", "MEASURED ATTRIBUTE", "DATA VALUE"],
 "data": [
  ["COc1ncc(N2CCOCC2)c2nc(NC(=O)c3cnn(C)c3)[nH]c12", "Cmax", 733],
  ["COc1ccc(-c2cnn(C)c2)c2nc(NC(=O)N3CCC(C)(O)CC3)[nH]c12", "Cmax", 1320]
]}

Entry `COc1ccc(N2CCOCC2)c2nc(NC(=O)c3cccc(N4CCOCC4)c3)[nH]c12` — recorded Cmax = 2100

Entry `COCCn1cc(C(=O)Nc2nc3c(OC)ncc(N4CCOCC4)c3s2)cn1` — recorded Cmax = 1390
